Data provenance: patent US20130196935A1

# PROCEDURE_DETAILS: MTS cytotoxicity assay on primary BAEC
# Format: cell-based, bovine
# COND: bovine, primary bovine aortic endothelial cells (BAEC), 0.5 mM, read-out: Viability of BAEC cells compared to control, Ave (%)
RECORDED_ENDPOINT: viability at 48 h, 0.5 mM (%)
Reply with just the number (in %).

COMPOUND | UNIT_TAG | viability at 48 h, 0.5 mM
O=C(O)[C@H](CC1CC1)NC[C@@]1(O)OC[C@@H](O)[C@@H](O[C@@H]2O[C@H](CO)[C@H](O)[C@H](O)[C@H]2O)[C@@H]1O [ACT-2] | % | 136

Now turn to the next compound.
Task: GET /values?readout=viability at 48 h, 0.5 mM&item= CC(C)CC(NC[C@@]1(O)OC[C@@H](O)[C@@H](O[C@@H]2O[C@H](CO)[C@H](O)[C@H](O)[C@H]2O)[C@@H]1O)C(=O)O (stereo in doubt) [ACT-1]
Output: 118
